Measured values drawn from ChEMBL document CHEMBL4808179 for this set.

# Tested on: Enterococcus faecium
# experiment_summary: Antibacterial activity against vancomycin resistant Enterococcus faecium Van M HS-0847 assessed as inhibition of bacterial growth
# Format: functional
attribute_measured: MIC (µg/mL)
Report the figure in µg/mL without appending any unit label.

Consider the following illustrative entries.
1) CN[C@H](CC(C)C)C(=O)N[C@H]1C(=O)N[C@@H](CC(N)=O)C(=O)N[C@H]2C(=O)N[C@H]3C(=O)N[C@H](C(=O)N[C@H](C(=O)NNCc4ccc(-c5ccccc5)cc4)c4cc(O)cc(O)c4-c4cc3ccc4O)[C@H](O)c3ccc(c(Cl)c3)Oc3cc2cc(c3O[C@@H]2O[C@H](CO)[C@@H](O)[C@H](O)[C@H]2O[C@H]2C[C@](C)(N)[C@H](O)[C@H](C)O2)Oc2ccc(cc2Cl)[C@H]1O ... 8
2) CN[C@H](CC(C)C)C(=O)N[C@H]1C(=O)N[C@@H](CC(N)=O)C(=O)N[C@H]2C(=O)N[C@H]3C(=O)N[C@H](C(=O)N[C@H](C(=O)N[C@@H](CCCNC(=N)N)C(=O)O)c4cc(O)cc(O)c4-c4cc3ccc4O)[C@H](O)c3ccc(c(Cl)c3)Oc3cc2cc(c3O[C@@H]2O[C@H](CO)[C@@H](O)[C@H](O)[C@H]2O[C@H]2C[C@](C)(N)[C@H](O)[C@H](C)O2)Oc2ccc(cc2Cl)[C@H]1O ... 128
3) CN[C@H](CC(C)C)C(=O)N[C@H]1C(=O)N[C@@H](CC(N)=O)C(=O)N[C@H]2C(=O)N[C@H]3C(=O)N[C@H](C(=O)N[C@H](C(=O)N[C@@H](CCCNC(=N)N)C(N)=O)c4cc(O)cc(O)c4-c4cc3ccc4O)[C@H](O)c3ccc(c(Cl)c3)Oc3cc2cc(c3O[C@@H]2O[C@H](CO)[C@@H](O)[C@H](O)[C@H]2O[C@H]2C[C@](C)(N)[C@H](O)[C@H](C)O2)Oc2ccc(cc2Cl)[C@H]1O ... 64
4) CN[C@H](CC(C)C)C(=O)N[C@H]1C(=O)N[C@@H](CC(N)=O)C(=O)N[C@H]2C(=O)N[C@H]3C(=O)N[C@H](C(=O)N[C@H](C(=O)NNCc4ccc(-c5ccc(C(F)(F)F)cc5)cc4)c4cc(O)cc(O)c4-c4cc3ccc4O)[C@H](O)c3ccc(c(Cl)c3)Oc3cc2cc(c3O[C@@H]2O[C@H](CO)[C@@H](O)[C@H](O)[C@H]2O[C@H]2C[C@](C)(N)[C@H](O)[C@H](C)O2)Oc2ccc(cc2Cl)[C@H]1O ... 4

Measured on Enterococcus faecium, CN[C@H](CC(C)C)C(=O)N[C@H]1C(=O)N[C@@H](CC(N)=O)C(=O)N[C@H]2C(=O)N[C@H]3C(=O)N[C@H](C(=O)N[C@H](C(=O)N/N=C/c4ccc(-c5ccc(Cl)cc5)cc4)c4cc(O)cc(O)c4-c4cc3ccc4O)[C@H](O)c3ccc(c(Cl)c3)Oc3cc2cc(c3O[C@@H]2O[C@H](CO)[C@@H](O)[C@H](O)[C@H]2O[C@H]2C[C@](C)(N)[C@H](O)[C@H](C)O2)Oc2ccc(cc2Cl)[C@H]1O has a documented MIC of 4

---

# System: Enterococcus faecium
# experiment_summary: Antibacterial activity against vancomycin resistant Enterococcus faecium Van A HS-0649 assessed as inhibition of bacterial growth
# Assay type: functional
attribute_measured: MIC (µg/mL)
Report the figure in µg/mL without appending any unit label.

1. CN[C@H](CC(C)C)C(=O)N[C@H]1C(=O)N[C@@H](CC(N)=O)C(=O)N[C@H]2C(=O)N[C@H]3C(=O)N[C@H](C(=O)N[C@H](C(=O)NNCc4ccc(-c5ccccc5)cc4)c4cc(O)cc(O)c4-c4cc3ccc4O)[C@H](O)c3ccc(c(Cl)c3)Oc3cc2cc(c3O[C@@H]2O[C@H](CO)[C@@H](O)[C@H](O)[C@H]2O[C@H]2C[C@](C)(N)[C@H](O)[C@H](C)O2)Oc2ccc(cc2Cl)[C@H]1O ... 8

Measured on Enterococcus faecium, CN[C@H](CC(C)C)C(=O)N[C@H]1C(=O)N[C@@H](CC(N)=O)C(=O)N[C@H]2C(=O)N[C@H]3C(=O)N[C@H](C(=O)N[C@H](C(=O)N/N=C/c4ccc(-c5ccc(Cl)cc5)cc4)c4cc(O)cc(O)c4-c4cc3ccc4O)[C@H](O)c3ccc(c(Cl)c3)Oc3cc2cc(c3O[C@@H]2O[C@H](CO)[C@@H](O)[C@H](O)[C@H]2O[C@H]2C[C@](C)(N)[C@H](O)[C@H](C)O2)Oc2ccc(cc2Cl)[C@H]1O has a documented MIC of 4

---

Reported MIC values for the following molecules.
# Tested on: Staphylococcus aureus
# experiment_summary: Antibacterial activity against methicillin-susceptible Staphylococcus aureus Newman assessed as bacterial growth inhibition
# Assay type: functional

Consider the following illustrative entries.
1) CN[C@H](CC(C)C)C(=O)N[C@H]1C(=O)N[C@@H](CC(N)=O)C(=O)N[C@H]2C(=O)N[C@H]3C(=O)N[C@H](C(=O)N[C@H](C(=O)NNCc4ccc(-c5ccc(Cl)cc5)cc4)c4cc(O)cc(O)c4-c4cc3ccc4O)[C@H](O)c3ccc(c(Cl)c3)Oc3cc2cc(c3O[C@@H]2O[C@H](CO)[C@@H](O)[C@H](O)[C@H]2O[C@H]2C[C@](C)(N)[C@H](O)[C@H](C)O2)Oc2ccc(cc2Cl)[C@H]1O ... ≤ 0.0625 µg/mL
2) CN[C@H](CC(C)C)C(=O)N[C@H]1C(=O)N[C@@H](CC(N)=O)C(=O)N[C@H]2C(=O)N[C@H]3C(=O)N[C@H](C(=O)N[C@H](C(=O)N[C@@H](CCCNC(=N)N)C(N)=O)c4cc(O)cc(O)c4-c4cc3ccc4O)[C@H](O)c3ccc(c(Cl)c3)Oc3cc2cc(c3O[C@@H]2O[C@H](CO)[C@@H](O)[C@H](O)[C@H]2O[C@H]2C[C@](C)(N)[C@H](O)[C@H](C)O2)Oc2ccc(cc2Cl)[C@H]1O ... 2 µg/mL

Consider the additional molecule presented here.
// MIC lookup, molecule = CN[C@H](CC(C)C)C(=O)N[C@H]1C(=O)N[C@@H](CC(N)=O)C(=O)N[C@H]2C(=O)N[C@H]3C(=O)N[C@H](C(=O)N[C@H](C(=O)NNCc4ccc(-c5ccccc5)cc4)c4cc(O)cc(O)c4-c4cc3ccc4O)[C@H](O)c3ccc(c(Cl)c3)Oc3cc2cc(c3O[C@@H]2O[C@H](CO)[C@@H](O)[C@H](O)[C@H]2O[C@H]2C[C@](C)(N)[C@H](O)[C@H](C)O2)Oc2ccc(cc2Cl)[C@H]1O , result: ≤ 0.0625 µg/mL

---

# Tested on: Staphylococcus aureus
# experiment_summary: Antibacterial activity against methicillin-susceptible Staphylococcus aureus Newman assessed as bacterial growth inhibition
# Type: functional
attribute_measured: MIC

// MIC lookup, molecule = CN[C@H](CC(C)C)C(=O)N[C@H]1C(=O)N[C@@H](CC(N)=O)C(=O)N[C@H]2C(=O)N[C@H]3C(=O)N[C@H](C(=O)N[C@H](C(=O)N/N=C/c4ccccc4)c4cc(O)cc(O)c4-c4cc3ccc4O)[C@H](O)c3ccc(c(Cl)c3)Oc3cc2cc(c3O[C@@H]2O[C@H](CO)[C@@H](O)[C@H](O)[C@H]2O[C@H]2C[C@](C)(N)[C@H](O)[C@H](C)O2)Oc2ccc(cc2Cl)[C@H]1O , result: 2 µg/mL

// MIC lookup, molecule = CN[C@H](CC(C)C)C(=O)N[C@H]1C(=O)N[C@@H](CC(N)=O)C(=O)N[C@H]2C(=O)N[C@H]3C(=O)N[C@H](C(=O)N[C@H](C(=O)NNCc4ccc(-c5ccc(C(F)(F)F)cc5)cc4)c4cc(O)cc(O)c4-c4cc3ccc4O)[C@H](O)c3ccc(c(Cl)c3)Oc3cc2cc(c3O[C@@H]2O[C@H](CO)[C@@H](O)[C@H](O)[C@H]2O[C@H]2C[C@](C)(N)[C@H](O)[C@H](C)O2)Oc2ccc(cc2Cl)[C@H]1O , result: 1 µg/mL

---

# Tested on: Enterococcus faecium
# experiment_summary: Antibacterial activity against vancomycin resistant Enterococcus faecium Van M HS-0847 assessed as inhibition of bacterial growth
# Assay type: functional
attribute_measured: MIC (µg/mL)
Report the figure in µg/mL without appending any unit label.

Consider the following illustrative entries.
1. CN[C@H](CC(C)C)C(=O)N[C@H]1C(=O)N[C@@H](CC(N)=O)C(=O)N[C@H]2C(=O)N[C@H]3C(=O)N[C@H](C(=O)N[C@H](C(=O)N/N=C/c4ccccc4)c4cc(O)cc(O)c4-c4cc3ccc4O)[C@H](O)c3ccc(c(Cl)c3)Oc3cc2cc(c3O[C@@H]2O[C@H](CO)[C@@H](O)[C@H](O)[C@H]2O[C@H]2C[C@](C)(N)[C@H](O)[C@H](C)O2)Oc2ccc(cc2Cl)[C@H]1O ... 64
2. CN[C@H](CC(C)C)C(=O)N[C@H]1C(=O)N[C@@H](CC(N)=O)C(=O)N[C@H]2C(=O)N[C@H]3C(=O)N[C@H](C(=O)N[C@H](C(=O)N/N=C/c4ccc(-c5ccc(C(F)(F)F)cc5)cc4)c4cc(O)cc(O)c4-c4cc3ccc4O)[C@H](O)c3ccc(c(Cl)c3)Oc3cc2cc(c3O[C@@H]2O[C@H](CO)[C@@H](O)[C@H](O)[C@H]2O[C@H]2C[C@](C)(N)[C@H](O)[C@H](C)O2)Oc2ccc(cc2Cl)[C@H]1O ... 4

// MIC lookup, compound = CN[C@H](CC(C)C)C(=O)N[C@H]1C(=O)N[C@@H](CC(N)=O)C(=O)N[C@H]2C(=O)N[C@H]3C(=O)N[C@H](C(=O)N[C@H](C(=O)N/N=C/c4ccc(-c5ccccc5)cc4)c4cc(O)cc(O)c4-c4cc3ccc4O)[C@H](O)c3ccc(c(Cl)c3)Oc3cc2cc(c3O[C@@H]2O[C@H](CO)[C@@H](O)[C@H](O)[C@H]2O[C@H]2C[C@](C)(N)[C@H](O)[C@H](C)O2)Oc2ccc(cc2Cl)[C@H]1O , result: 4

// MIC lookup, compound = CN[C@H](CC(C)C)C(=O)N[C@H]1C(=O)N[C@@H](CC(N)=O)C(=O)N[C@H]2C(=O)N[C@H]3C(=O)N[C@H](C(=O)N[C@H](C(=O)N[C@@H](CS)C(=O)O)c4cc(O)cc(O)c4-c4cc3ccc4O)[C@H](O)c3ccc(c(Cl)c3)Oc3cc2cc(c3O[C@@H]2O[C@H](CO)[C@@H](O)[C@H](O)[C@H]2O[C@H]2C[C@](C)(N)[C@H](O)[C@H](C)O2)Oc2ccc(cc2Cl)[C@H]1O , result: 8

// MIC lookup, compound = CN[C@H](CC(C)C)C(=O)N[C@H]1C(=O)N[C@@H](CC(N)=O)C(=O)N[C@H]2C(=O)N[C@H]3C(=O)N[C@H](C(=O)N[C@H](C(=O)O)c4cc(O)cc(O)c4-c4cc3ccc4O)[C@H](O)c3ccc(c(Cl)c3)Oc3cc2cc(c3O[C@@H]2O[C@H](CO)[C@@H](O)[C@H](O)[C@H]2O[C@H]2C[C@](C)(N)[C@H](O)[C@H](C)O2)Oc2ccc(cc2Cl)[C@H]1O , result: 64

// MIC lookup, compound = CN[C@H](CC(C)C)C(=O)N[C@H]1C(=O)N[C@@H](CC(N)=O)C(=O)N[C@H]2C(=O)N[C@H]3C(=O)N[C@H](C(=O)N[C@H](C(=O)NNCc4ccc(-c5ccc(Cl)cc5)cc4)c4cc(O)cc(O)c4-c4cc3ccc4O)[C@H](O)c3ccc(c(Cl)c3)Oc3cc2cc(c3O[C@@H]2O[C@H](CO)[C@@H](O)[C@H](O)[C@H]2O[C@H]2C[C@](C)(N)[C@H](O)[C@H](C)O2)Oc2ccc(cc2Cl)[C@H]1O , result: 8

// MIC lookup, compound = CN[C@H](CC(C)C)C(=O)N[C@H]1C(=O)N[C@@H](CC(N)=O)C(=O)N[C@H]2C(=O)N[C@H]3C(=O)N[C@H](C(=O)N[C@H](C(=O)NNCc4ccccc4)c4cc(O)cc(O)c4-c4cc3ccc4O)[C@H](O)c3ccc(c(Cl)c3)Oc3cc2cc(c3O[C@@H]2O[C@H](CO)[C@@H](O)[C@H](O)[C@H]2O[C@H]2C[C@](C)(N)[C@H](O)[C@H](C)O2)Oc2ccc(cc2Cl)[C@H]1O , result: 64
